# assay.target: T1, human CD4 (human, UniProt P01730 26-458)
# T1 construct: whole, on cells; also called hCD4
# assay.notes: FACS, clonal hybridoma supernatant on human PBMCs
outcome.measure: % CD4 Stain (%)
Give bare numbers, in %.

Worked cases, answers included:
binder	u	% CD4 Stain
75110_01G11A (antibody, V domains shown, Tested as clonal hybridoma supernatant (AlivaMab Mouse Kappa; anti-mouse Fc detection); also called Sib1.6) VH: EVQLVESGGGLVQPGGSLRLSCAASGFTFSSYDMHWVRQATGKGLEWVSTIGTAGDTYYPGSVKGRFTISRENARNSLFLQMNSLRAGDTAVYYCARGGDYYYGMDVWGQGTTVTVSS VL: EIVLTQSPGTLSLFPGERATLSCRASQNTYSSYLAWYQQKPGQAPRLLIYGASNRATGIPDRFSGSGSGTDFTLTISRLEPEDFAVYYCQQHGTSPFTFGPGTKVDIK	%	39
75110_03D16A (antibody, V domains shown, Tested as clonal hybridoma supernatant (AlivaMab Mouse Kappa; anti-mouse Fc detection); also called Sib2.5) VH: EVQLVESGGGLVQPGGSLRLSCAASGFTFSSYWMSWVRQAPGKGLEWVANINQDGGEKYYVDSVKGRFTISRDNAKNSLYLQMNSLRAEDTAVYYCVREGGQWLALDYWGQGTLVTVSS VL: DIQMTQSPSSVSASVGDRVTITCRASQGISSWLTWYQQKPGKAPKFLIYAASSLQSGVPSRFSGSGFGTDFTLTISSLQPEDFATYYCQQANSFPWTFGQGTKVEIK	%	35.6

In the following, a different binder is considered.
Exercise: # % CD4 Stain lookup, item 75110_02I18A (antibody, V domains shown, Tested as clonal hybridoma supernatant (AlivaMab Mouse Kappa; anti-mouse Fc detection); also called 75110_02118A; Sib1.14) VH: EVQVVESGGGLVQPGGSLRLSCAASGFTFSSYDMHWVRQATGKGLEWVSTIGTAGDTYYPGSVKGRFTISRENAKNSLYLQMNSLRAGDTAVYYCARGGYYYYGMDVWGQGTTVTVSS VL: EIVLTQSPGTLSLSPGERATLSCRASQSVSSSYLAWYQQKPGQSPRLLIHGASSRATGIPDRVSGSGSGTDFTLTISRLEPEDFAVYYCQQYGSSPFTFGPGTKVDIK
Solution: 40.5
